Target Under Test: ribD RNA
Experiment Summary: In-line probing of ribD RNA (RFN element)
Details: read-out: apparent KD
pKd: −log10 of the molar value.
Measurement Type: pKd

Please look at this compound and report its pKd: Cc1cc2nc3c(=O)[nH]c(=O)nc-3n(C[C@H](O)[C@H](O)[C@H](O)COP(=O)(O)O)c2cc1C [FMN, flavin mononucleotide]
~8.30

---

Target Under Test: 201 xpt RNA
Experiment Summary: In-line probing of 201 xpt RNA
Details: read-out: apparent KD; limit of detection of the assay
Measurement Type: Kd

Fill in Kd for `Nc1nc2nc[nH]c2c(=O)[nH]1` tested with 201 xpt RNA.
≤ 5 nM
